- System: MDA-MB-468
- Protocol description: Antiproliferative activity against human BRCA proficient MDA-MB-468 cells assessed as reduction in cell growth incubated for 7 days by cell titer-glo assay
- Type: functional, cell-based
- Condition description: MDA-MB-468, 168 h
Recorded endpoint: IC50 (nM)

Cc1c(CN2CCN(C(=O)c3cc(Cc4n[nH]c(=O)c5ccccc45)ccc3F)CC2)sc2c(N3CCOCC3)nc(-c3cnc(N)nc3)nc12 1080
Cc1c(CN2CCN(C(=O)c3cc4cccc(C(N)=O)c4o3)CC2)sc2c(N3CCOCC3)nc(-c3cnc(N)nc3)nc12 1020

[1] Cc1c(CN2CCN(C(=O)c3cc4cccc(C(N)=O)c4o3)CC2)sc2c(N3CCOCC3)nc(-c3ccc(N)cc3)nc12
[2] Cc1c(CN2CCN(C(=O)c3cc(Cc4n[nH]c(=O)c5ccccc45)ccc3F)CC2)sc2c(N3CCOCC3)nc(-c3cnc(N)cc3C(F)(F)F)nc12
Q: In terms of reported IC50, does 1 or 2 have the smaller number? Record your answer as the label of the chosen record.
Ans: 2

Data credit: ChEMBL document CHEMBL4813994
